Tested on: 454973-116-R2-J3-PDC spheroids, viability, % test/control
Experiment: Anticancer human tumor 454973-116-R2-J3-PDC patient-derived pancreatic carcinoma cell line growth inhibition [GQUAD]
Details: second compound 0.1 µM; first compound 0.316 µM; stronger effect = lower value; spheroids with HUVEC and MSC
Measured viability, T/C accompanies every entry in the list below.
Respond with the bare value in %.

The recorded viability, T/C for entry C=CC(=O)N1CCN(c2nc(=O)n(-c3c(C)ccnc3C(C)C)c3nc(-c4c(O)cccc4F)c(F)cc23)C(C)C1 (stereo not given) + CN(C)c1ccc(Nc2c3ccc(NC(=O)CCN4CCCC4)cc3nc3cc(NC(=O)CCN4CCCC4)ccc23)cc1 equals 107

The recorded viability, T/C for entry CC1COCCN1c1cc(C2(S(C)(=N)=O)CC2)nc(-c2ccnc3[nH]ccc23)n1 (stereo not given) + Cc1[nH]c2ccc(F)cc2c1-c1nc2c3cccnc3c3ncccc3c2[nH]1 equals 110

The recorded viability, T/C for entry O=C(NO)c1cnc(N2CCN(S(=O)(=O)c3ccc4ccccc4c3)CC2)nc1 + CN(C)c1ccc(Nc2c3ccc(NC(=O)CCN4CCCC4)cc3nc3cc(NC(=O)CCN4CCCC4)ccc23)cc1 equals 28.9

The recorded viability, T/C for entry COc1ncnc(C2CC2)c1-c1ncc2cnn(Cc3ccc(-c4nc(C(F)(F)F)cn4C(C)C)cc3)c2n1 + CN(C)c1ccc(Nc2c3ccc(NC(=O)CCN4CCCC4)cc3nc3cc(NC(=O)CCN4CCCC4)ccc23)cc1 equals 114

The recorded viability, T/C for entry Cn1ncnc1[C@H]1c2n[nH]c(=O)c3cc(F)cc(c23)N[C@@H]1c1ccc(F)cc1 + CN(C)c1ccc(Nc2c3ccc(NC(=O)CCN4CCCC4)cc3nc3cc(NC(=O)CCN4CCCC4)ccc23)cc1 equals 72.3

* * *

Tested on: 454973-116-R2-J3-PDC spheroids, viability, % test/control
Experiment: Anticancer human tumor 454973-116-R2-J3-PDC cell line growth inhibition [GQUAD];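 note: spheroids exposed to compounds for seven days; 100% = DMSO vehicle control viability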
Settings: second compound 0.0316 µM; first compound 0.00999 µM; stronger effect = lower value; spheroids with HUVEC and MSC
viability, T/C less than 90% is 1; viability, T/C greater than or equal to 90% is -1.

Look over these answered cases.
>>> cat("CCc1c2c(nc3ccc(O)cc13)-c1cc3c(c(=O)n1C2)COC(=O)[C@]3(O)CC + CN(C)c1ccc(Nc2c3ccc(NC(=O)CCN4CCCC4)cc3nc3cc(NC(=O)CCN4CCCC4)ccc23)cc1")
1
>>> cat("CCc1c2c(nc3ccc(O)cc13)-c1cc3c(c(=O)n1C2)COC(=O)[C@]3(O)CC + Cc1cnc(CNC(=O)c2c(=O)c3ccc(N4CCCN(C)CC4)nc3n3c2sc2ccccc23)cn1")
1
>>> cat("Cc1[nH]c2ccccc2c1CCNCc1ccc(/C=C/C(=O)NO)cc1 + CN(C)c1ccc(Nc2c3ccc(NC(=O)CCN4CCCC4)cc3nc3cc(NC(=O)CCN4CCCC4)ccc23)cc1")
-1
>>> cat("Cc1[nH]c2ccccc2c1CCNCc1ccc(/C=C/C(=O)NO)cc1 + Cc1[nH]c2ccc(F)cc2c1-c1nc2c3cccnc3c3ncccc3c2[nH]1")
-1
>>> cat("CC[C@@]1(O)C(=O)OCc2c1cc1n(c2=O)Cc2cc3c(CN(C)C)c(O)ccc3nc2-1 + Cc1cnc(CNC(=O)c2c(=O)c3ccc(N4CCCN(C)CC4)nc3n3c2sc2ccccc23)cn1")
1

Lookup: For this compound, is viability, T/C lower than 90%? Cn1ncnc1[C@H]1c2n[nH]c(=O)c3cc(F)cc(c23)N[C@@H]1c1ccc(F)cc1 + Cc1[nH]c2ccc(F)cc2c1-c1nc2c3cccnc3c3ncccc3c2[nH]1
Found: -1

Lookup: For this compound, is viability, T/C lower than 90%? CC[C@@]1(O)C(=O)OCc2c1cc1n(c2=O)Cc2cc3c(CN(C)C)c(O)ccc3nc2-1 + Cc1[nH]c2ccc(F)cc2c1-c1nc2c3cccnc3c3ncccc3c2[nH]1
Found: -1
